test system: human red blood cells (hRBC); assay: Hemolysis
Where a SMILES comes first, the peptide text is derived from it.
PROPERTY: Hemolysis at 100 μM % (%)
Answer format: numeric, % implied, no suffix.

Exercise: Please look up its Hemolysis at 100 μM %: CC[C@H](C)[C@@H]1NC(=O)[C@@H]2CCCN2C(=O)[C@H]2CCCN2C(=O)[C@H](CCCNC(=N)N)NC(=O)[C@@H]2CSSC[C@H](NC1=O)C(=O)N[C@@H]([C@@H](C)O)C(=O)N[C@@H](CCCCN)C(=O)N[C@@H](CO)C(=O)N[C@@H](CC(=O)O)C(=O)N1CCC[C@H]1C(=O)N1CCC[C@H]1C(=O)N[C@@H](CCC(N)=O)C(=O)N2 [Ex. 55] (HELM PEPTIDE1{I.C.T.K.S.D.P.P.Q.C.R.[dP].P}$PEPTIDE1,PEPTIDE1,2:R3-10:R3|PEPTIDE1,PEPTIDE1,1:R1-13:R2$$$V2.0)
Key: 0.1

---

biological target: Elastase from human neutrophils (Homo sapiens); test: Enzymatic assay, elastase; conditions: Elastase IC50
Sequence (P08246 30-267): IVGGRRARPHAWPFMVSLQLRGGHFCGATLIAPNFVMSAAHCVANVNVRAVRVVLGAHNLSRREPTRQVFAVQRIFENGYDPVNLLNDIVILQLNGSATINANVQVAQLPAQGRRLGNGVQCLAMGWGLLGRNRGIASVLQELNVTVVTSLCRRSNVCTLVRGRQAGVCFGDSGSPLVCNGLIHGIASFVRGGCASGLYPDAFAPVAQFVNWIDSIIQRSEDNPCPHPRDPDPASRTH
Where a SMILES comes first, the peptide text is derived from it.
PROPERTY: pIC50
Scale: pIC50 equals -log10([C]), with [C] in mol/L.

Exercise: Look at this compound and give its reported pIC50. CCCC[C@@H]1NC(=O)[C@@H]2CCCN2C(=O)[C@H]2CCCN2C(=O)[C@H](Cc2ccc(O)cc2)NC(=O)[C@@H]2CSSC[C@H](NC1=O)C(=O)N[C@@H]([C@@H](C)O)C(=O)N[C@@H](C)C(=O)N[C@@H](CO)C(=O)N[C@@H]([C@@H](C)CC)C(=O)N1CCC[C@H]1C(=O)N1CC(NC(=O)c3ccccc3)C[C@H]1C(=O)N[C@@H](CCC(N)=O)C(=O)N2 (single isomer, unassigned) [Ex. 138]
Key: 7.72

Exercise: Note, next up: CCCC[C@@H]1NC(=O)[C@H](CCC(N)=O)NC(=O)[C@H]2CCCN2C(=O)[C@H](CCC(N)=O)NC(=O)[C@@H]2CSSC[C@H](NC1=O)C(=O)N[C@@H]([C@@H](C)O)C(=O)N[C@@H](C)C(=O)N[C@@H](CO)C(=O)N[C@@H](CC1CCCCC1)C(=O)N1CCC[C@H]1C(=O)N1CCC[C@H]1C(=O)N[C@@H](CCC(N)=O)C(=O)N2 [compound 164] (HELM PEPTIDE1{[Nle].C.T.A.S.[Cha].P.P.Q.C.Q.[dP].Q}$PEPTIDE1,PEPTIDE1,2:R3-10:R3|PEPTIDE1,PEPTIDE1,1:R1-13:R2$$$V2.0)
Key: 7.62

Exercise: Again, but for CCCC[C@@H]1NC(=O)[C@H](CC(=O)O)NC(=O)[C@H]2CCCN2C(=O)[C@H](Cc2ccc(O)cc2)NC(=O)[C@@H]2CSSC[C@H](NC1=O)C(=O)N[C@@H]([C@@H](C)O)C(=O)N[C@@H](C)C(=O)N[C@@H](CO)C(=O)N[C@@H]([C@@H](C)CC)C(=O)N1CCC[C@H]1C(=O)N1CCC[C@H]1C(=O)N[C@@H](CCC(N)=O)C(=O)N2 [Ex. 121] (HELM PEPTIDE1{[Nle].C.T.A.S.I.P.P.Q.C.Y.[dP].D}$PEPTIDE1,PEPTIDE1,2:R3-10:R3|PEPTIDE1,PEPTIDE1,1:R1-13:R2$$$V2.0)
Key: 7.74

Exercise: Same lookup for CC[C@H](C)[C@@H]1NC(=O)[C@H](CO)NC(=O)[C@H](C)NC(=O)[C@H]([C@@H](C)O)NC(=O)[C@H]([C@@H](C)O)NC(=O)[C@H](CCc2ccccc2)NC(=O)[C@@H]2CCCN2C(=O)[C@H]2CCCN2C(=O)[C@H](Cc2ccc(O)cc2)NC(=O)[C@H](CCC(N)=O)NC(=O)[C@H](CCC(N)=O)NC(=O)[C@@H]2CCCN2C(=O)[C@@H]2CCCN2C1=O [Ex. 134] (HELM PEPTIDE1{[O=C([C@H](CCc1ccccc1)N[*:1])[*:2]].T.T.A.S.I.P.P.Q.Q.Y.[dP].P}$PEPTIDE1,PEPTIDE1,1:R1-13:R2$$$V2.0) , please.
Key: 7.64
